Entries annotated with measured growth inhibition rate (%) on Vero cells
Test system: Vero cells
Run description: Cytotoxic assay of tested drugs against Vero cells (CCK-8)
Assay type: cell-based, African green monkey
Condition parameters: 3rd concentration, 50% serial dilution from column-head concentration; 72 h
Marks after values point to notes of the source that are not given here.

Query: If you can, please state the reported growth inhibition rate (%) on Vero cells value of CCOc1ccc(-c2coc3c(Cc4c(OCC)c(OC)c(O)c5c(=O)c(-c6ccc(OCC)c(S(=O)(=O)[O-])c6)coc45)c(OCC)c(OC)c(O)c3c2=O)cc1S(=O)(=O)[O-].[Na+].[Na+] [Compound 4] .
Result: 26.53** %

Query: If you can, please state the reported growth inhibition rate (%) on Vero cells value of COc1c(O)cc2occ(-c3ccc(O)c(S(=O)(=O)[O-])c3)c(=O)c2c1O.[Na+] [Compound 1, sodium tectorigenin-5′-sulphonate] .
Result: 42.06** %

Query: If you can, please state the reported growth inhibition rate (%) on Vero cells value of CCOc1ccc(-c2coc3cc(OCC)c(OC)c(O)c3c2=O)cc1S(=O)(=O)[O-].[Na+] [Compound 3] .
Result: 36.94** %

Query: If you can, please state the reported growth inhibition rate (%) on Vero cells value of COc1c(O)c(Cc2c(O)c(OC)c(O)c3c(=O)c(-c4ccc(O)c(S(=O)(=O)[O-])c4)coc23)c2occ(-c3ccc(O)c(S(=O)(=O)[O-])c3)c(=O)c2c1O.[Na+].[Na+] [Compound 2] .
Result: 11.69** %

* * *

Entries annotated with measured solubility
Run description: Solubility (highest solubility used as starting concentration; water solubility)

{"Molecule": "CCOc1ccc(-c2coc3c(Cc4c(OCC)c(OC)c(O)c5c(=O)c(-c6ccc(OCC)c(S(=O)(=O)[O-])c6)coc45)c(OCC)c(OC)c(O)c3c2=O)cc1S(=O)(=O)[O-].[Na+].[Na+] [Compound 4]", "solubility": "390 µg/mL"}
{"Molecule": "COc1c(O)c(Cc2c(O)c(OC)c(O)c3c(=O)c(-c4ccc(O)c(S(=O)(=O)[O-])c4)coc23)c2occ(-c3ccc(O)c(S(=O)(=O)[O-])c3)c(=O)c2c1O.[Na+].[Na+] [Compound 2]", "solubility": "1600 µg/mL"}

Let us examine a further case.
Query: If you can, please state the reported solubility value of CCOc1ccc(-c2coc3cc(OCC)c(OC)c(O)c3c2=O)cc1S(=O)(=O)[O-].[Na+] [Compound 3] .
Result: 2620 µg/mL

* * *

Test system: Vero cells
Run description: Cytotoxic assay of tested drugs against Vero cells (CCK-8)
Type: cell-based, African green monkey
Condition parameters: 2nd concentration, 50% serial dilution from column-head concentration; 72 h
Method: 3. Cytotoxic assay of tested drugs against Vero cells: Vero cells were seed in a 96 well plate at 3×10^4 cells/well. The next day, after growing into a monolayer, the test drug was diluted to obtain 8-9 concentrations and added to each well. […] After 72 hours, the toxicity of the test drug to Vero cells was measured using CCK-8 assay, and the highest non-toxic concentration and half toxic concentration (TC50) of the drug on the cells were calculated.
Marks after values point to notes of the source that are not given here.
Entries annotated with measured growth inhibition rate (%) on Vero cells

// known answers, use as guide
{"Compound": "CCOc1ccc(-c2coc3cc(OCC)c(OC)c(O)c3c2=O)cc1S(=O)(=O)[O-].[Na+]", "growth inhibition rate (%) on Vero cells": "40.80** %"}
{"Compound": "CCOc1ccc(-c2coc3c(Cc4c(OCC)c(OC)c(O)c5c(=O)c(-c6ccc(OCC)c(S(=O)(=O)[O-])c6)coc45)c(OCC)c(OC)c(O)c3c2=O)cc1S(=O)(=O)[O-].[Na+].[Na+]", "growth inhibition rate (%) on Vero cells": "27.54** %"}
{"Compound": "COc1c(O)c(Cc2c(O)c(OC)c(O)c3c(=O)c(-c4ccc(O)c(S(=O)(=O)[O-])c4)coc23)c2occ(-c3ccc(O)c(S(=O)(=O)[O-])c3)c(=O)c2c1O.[Na+].[Na+]", "growth inhibition rate (%) on Vero cells": "29.02** %"}

Query: If you can, please state the reported growth inhibition rate (%) on Vero cells value of COc1c(O)cc2occ(-c3ccc(O)c(S(=O)(=O)[O-])c3)c(=O)c2c1O.[Na+] [Compound 1, sodium tectorigenin-5′-sulphonate] .
Result: 49.99** %
